# ASSAYED_TARGET: Large neutral amino acids transporter small subunit 1 (Homo sapiens)
# Sequence (Q01650 whole entry): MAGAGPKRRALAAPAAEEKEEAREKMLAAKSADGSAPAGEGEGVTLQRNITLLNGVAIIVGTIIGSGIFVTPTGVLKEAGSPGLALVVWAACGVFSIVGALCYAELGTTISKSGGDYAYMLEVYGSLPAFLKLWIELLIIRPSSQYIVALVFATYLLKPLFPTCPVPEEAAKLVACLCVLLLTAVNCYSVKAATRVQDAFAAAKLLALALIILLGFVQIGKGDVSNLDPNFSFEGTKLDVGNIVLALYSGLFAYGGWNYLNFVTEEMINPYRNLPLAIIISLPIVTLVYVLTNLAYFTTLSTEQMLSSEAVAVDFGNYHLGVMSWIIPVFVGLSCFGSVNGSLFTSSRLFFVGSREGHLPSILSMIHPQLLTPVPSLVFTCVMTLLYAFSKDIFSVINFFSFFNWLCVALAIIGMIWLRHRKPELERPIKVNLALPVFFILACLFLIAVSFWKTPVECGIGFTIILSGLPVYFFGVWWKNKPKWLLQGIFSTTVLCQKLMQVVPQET
# MEASUREMENT_NOTES: Cis-inhibition of human LAT1 expressed in TREx HEK293 cells at 200 uM assessed as inhibition of [3H]-gabapentin uptake preincubated for 3 mins at 37 degC followed by washing with choline buffer and measured after 3 hrs by scintillation counting analysis relative to BCH
Reported values of pIC50 for individual entries
Would you please state pIC50, meaning minus log10 of the concentration in mol/L, as a bare number?

Task item: State the recorded pIC50 for this entry: N[C@@H](Cc1ccncc1)C(=O)O
Reply: 4.00

Task item: State the recorded pIC50 for this entry: CC(C)C[C@@H](N)C(=O)O
Reply: 3.66

Task item: State the recorded pIC50 for this entry: CC(C)[C@H](N)C(=O)O
Reply: 4.17

Task item: State the recorded pIC50 for this entry: CC(C)(C)OC(=O)c1cccc(C[C@H](N)C(=O)O)c1
Reply: 4.77

Task item: State the recorded pIC50 for this entry: N[C@@H](Cc1ccc(O)cc1)C(=O)O
Reply: 4.17

Task item: State the recorded pIC50 for this entry: COC(=O)c1cc(C)cc(C[C@H](N)C(=O)O)c1
Reply: 4.02

Task item: State the recorded pIC50 for this entry: N[C@@H](Cc1ccccn1)C(=O)O
Reply: 3.80

Task item: State the recorded pIC50 for this entry: NCc1cccc(C[C@H](N)C(=O)O)c1
Reply: 3.33

Task item: State the recorded pIC50 for this entry: N[C@H](Cc1ccc(O)cc1)C(=O)O
Reply: 3.42

Task item: State the recorded pIC50 for this entry: Cn1cnc(C[C@H](N)C(=O)O)c1
Reply: 3.72

Task item: State the recorded pIC50 for this entry: COC(=O)c1cccc(C[C@@H](N)C(=O)O)c1
Reply: 3.82

Task item: State the recorded pIC50 for this entry: CC(=O)Nc1cccc(C[C@H](N)C(=O)O)c1
Reply: 3.96
